- Target or system: GlcNAc(b1-3)Gal(b1-3)GalNAc
- Measurement notes: glycan array binding signal (z-score within array); higher = stronger binding
- Conditions: glycan notation: IUPAC condensed, linker removed
The sample as a whole holds a higher share of the strongest signals than the screen did.
Classification by glycan array binding signal (z-score) | ranges: lower level (below -0.5), middle level (-0.5 to below 1), upper level (1 or more)

| Binder | Assigned class |
| --- | --- |
| LEA (Lycopersicon esculentum) (protein) NEVFDVPMNETIGVESINASVGGYPRCGAQGDGGNCPSGMCCSVWGWCGKTYGYCAPQNCQKQCPAPYPEGRCGWQADGKSCPNGKCCSYGGWCGTTSDYCARQNCQKQCILPSPPPPPPPPPGFPRPECGLQKNGERCTKPGECCSIWGLCGATYKYCDPQHCQKQCSAPFPPGRCGWQADGRPCPTGQCCSFSGWCGTTSAHCTYPQCVSQCNDPRFPSSLNNRIQSFML | lower level |
| CTLX (Homo sapiens), Q6UXS0 (protein) SLCPLFWMEFKGHCYRFFPLNKTWAEADLYCSEFSVGRKSAKLASIHSWEENVFVYDLVNSCVPGIPADVWTGLHDHRQEGQFEWTDGSSYDYSYWDGSQPDDGVHADPEEEDCVQIWYRPTSALRSWNDNTCSRKFPFVCKIPSLTIH | upper level |
| Intelectin-1a (Mus musculus) (protein) AEWSHPQFEKAEENLDTNRWGNSFFSSLPRSCKEIKQEHTKAQDGLYFLRTKNGVIYQTFCDMTTAGGGWTLVASVHENNMRGKCTVGDRWSSQQGNRADYPEGDGNWANYNTFGSAEAATSDDYKNPGYFDIQAENLGIWHVPNKSPLHNWRKSSLLRYRTFTGFLQHLGHNLFGLYKKYPVKYGEGKCWTDNGPALPVVYDFGDARKTASYYSPSGQREFTAGYVQFRVFNNERAASALCAGVRVTGCNTEHHCIGGGGFFPEGNPVQCGDFASFDWDGYGTHNGYSSSRKITEAAVLLFYR | lower level |
| rMpL (Macrolepiota procera) (protein) MSTQVSSGRTYKITNVIAGTVIDLSGEDNKSIIGYPYHSGKNQQWTFNWTGKAWTLRSASSGSYLGIEGTPAGGTRLVAVNDPFEWHIWRDEANENAFRIFVPFTNYNLDLSGYGDTTPGTPVQLWWTWEGLHQTWTIDRP | middle level |
| UDA (Urtica dioica), P11218 (protein) MMMRFLSAVVIMSSAMAVGLVSAQRCGSQGGGGTCPALWCCSIWGWCGDSEPYCGRTCENKCWSGERSDHRCGAAVGNPPCGQDRCCSVHGWCGGGNDYCSGSKCQYRCSSSVRGPRVALSGNSTANSIGNVVVTEPLFDQMFSHRKDCPSQGFYSYHSFLVAAESFPAFGTIGDVATRKREVAAFLAHISQATSGERSDVENPHAWGLCHINTTTVTENDFCTSSDWPCAAGKKYSPRGPIQLTHNFNYGLAGQAIGEDLIQNPDLVEKDPIISFKTALWFWMSQHDNKPSCHDIVLNANSAANRIPNKGVIGNIISRAFGHDDFAVRSSSIGFYKRYCDMLGVSYGHDLKYWFDNTPSSEFQRIQMRVAA | middle level |
| FGFR2-Fc (protein) MVNVTDAISSGDDEDDTDGAEDFVSENSNNKRAPYWTNTEKMEKRLHAVPAANTVKFRCPAGGNPMPTMRWLKNGKEFKQEHRIGGYKVRNQHWSLIMESVVPSDKGNYTCVVENEYGSINHTYHLDVVERSPHRPILQAGLPANASTVVGGDVEFVCKVYSDAQPHIQWIKHVEKNGSKYGPDGLPYLKVLKHSGINSSNAEVLALFNVTEADAGEYICKVSNYIGQANQSAWLTVLPKQQAPGREKEITASPDYLETRPLEQKLISEEDLAANDILDYKDDDDKV | middle level |
| CTMLA2 (Anopheles gambiae), Q7Q7F8 (protein) MNLMITILIAVITVVRGDLSVPKTVDDILQQNPCLCPCKPFEEKEYFIPISRTSDWFGAVAYCHSVGMELAEVLNEDEARAMGEVIAEEESDSDDEFYWIGANDLGVQGTYRWALAGRPVLYSQWAAGEPNHARGENGQQPAERCVAVAMDKYEWNDFQCTQQKPFICQQFRKH | upper level |
| Layilin (Mus musculus), Q8C351 (protein) MQPGAALQAMLLAVLLAKPRDSKGRLLSASDLDPRGGQLVCRGGTRRPCYKVIYFHDAFQRLNFEEAKETCMEDGGQLVSIETEDEQRLIEKFIENLLASDGDFWIGLKRLEEKQSNNTACQDLYAWTDGSTSQFRNWYVDEPSCGSEVCVVMYHQPSAPPGIGGSYMFQWNDDRCNMKNNFICKYHDDKPSTTPSIWPGGEATEPATPLLPEETQKEDTKETFKERREAALNLAYILIPSIPLFLLLVVTSAVCWVWICRRKREQTDPSTKEQHTIWPTPRQENSPNLDVYNVIRKQSEADLAEPRPDLKNISFRVCSGEAMPDDMSCDYENIAVNPSESGFVTLASMESGFVTNDIYEFSPDRMGRSKESGWVENEIYY | upper level |
